Sourced from patent US20220323594A1

- protocol_text: Dynamic light scattering (DLS) of mRNA/peptoid formulations: particle size and polydispersity
- Format: physicochemical
- study_conditions: size polydispersity index by DLS; Fluc mRNA/peptoid formulation, 5:1 mass ratio
value_type: Size PDI

# structure_smiles_string, value_type, observed
rows = [
    ("CCCCCCCCCCN(CC(N)=O)C(=O)CN(CCCCCCCCCC)C(=O)CN(CCCCCCCCCC)C(=O)CN(CCCCCCCCCC)C(=O)CN(CCc1ccccc1)C(=O)CN(CCc1ccccc1)C(=O)CN(CCCN)C(=O)CN(CCc1ccccc1)C(=O)CN(CCc1ccccc1)C(=O)CN(CCCN)C(=O)CN(CCc1ccccc1)C(=O)CN(CCc1ccccc1)C(=O)CNCCCN", "Size PDI", 0.085),
]

Proceed to the following item.
The measured Size PDI associated with `CCCCCCCCCCCCN(CC(N)=O)C(=O)CN(CCCCCCCCCCCC)C(=O)CN(CCc1ccc(OC)cc1)C(=O)CN(CCc1ccc(OC)cc1)C(=O)CN(CCN)C(=O)CN(CCc1ccc(OC)cc1)C(=O)CN(CCc1ccc(OC)cc1)C(=O)CN(CCN)C(=O)CN(CCc1ccc(OC)cc1)C(=O)CN(CCc1ccc(OC)cc1)C(=O)CNCCN` reads 0.191
